B1: WDFY1 (parent)
chain: LLIPKEDGVITASEDRTIRVWLKR

- Variants of: B1
- experimentalDetails: protein stability index of a GFP-peptide fusion (GPS, HEK-293T) (PSI 1-6); higher = more stable;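 note: lentivirally expressed fusions sorted by FACS into six bins by GFP to DsRed ratio, PSI derived from sequencing read proportions per bin multiplied by bin number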
- conditionSummary: c terminus: a fixed tail appended
measureName: protein stability index

E14P 2.62
S13V 2.32

Kindly review the next variant as well.
Request the reported protein stability index associated with D7Q
2.1

Attribution: the supplement of paper PMC10567573
